Below is a list of entries, each paired with its recorded MIC value.
- Test system: MDRPA
- experimentDescription: MIC determination, microdilution broth method
- assayContext: Pseudomonas aeruginosa, read-out: MIC (single use), strain P12; EA=P. clypearia 10% ethanol extract
Entry rule: numbers only, all in µg/mL.

A selection of reference data follows.
molecule	unitAnnotation	reportedMeasurement
C[C@H]1COc2c(N3CCN(C)CC3)c(F)cc3c(=O)c(C(=O)O)cn1c23	µg/mL	1
CC(C)(O/N=C(\C(=O)N[C@@H]1C(=O)N2C(C(=O)[O-])=C(C[n+]3ccccc3)CS[C@H]12)c1csc(N)n1)C(=O)O	µg/mL	64
CCN1CCN(C(=O)N[C@@H](C(=O)N[C@@H]2C(=O)N3C(C(=O)O)=C(CSc4nnnn4C)CS[C@H]23)c2ccc(O)cc2)C(=O)C1=O	µg/mL	512
NCC[C@H](O)C(=O)N[C@@H]1C[C@H](N)[C@@H](O[C@H]2O[C@H](CN)[C@@H](O)[C@H](O)[C@H]2O)[C@H](O)[C@H]1O[C@H]1O[C@H](CO)[C@@H](O)[C@H](N)[C@H]1O	µg/mL	32

Request the reported MIC associated with C[C@@H](O)[C@H]1C(=O)N2C(C(=O)O)=C(SCCN=CN)C[C@H]12
32

----------
- Test system: MDRAB
- experimentDescription: Checkerboard assay (combined-use MIC, FIC)
- Type: cell-based, Acinetobacter baumannii
- assayContext: Acinetobacter baumannii, strain A5; EA=60% ethanol extract; read-out: single-use MIC
- Method: Test methods of the sensibilization effects of the test product to similar antibiotics: it is operated by referring to a checkerboard assay recommended by NCCLS. The checkerboard assay is performed in a 96-pore sterile culture plate. Calculation of a Fractional Inhibitory Concentration (FIC): FIC=S20b combined-use MIC/S20b single-use MIC+antibiotic combined-use MIC/antibiotic single-use MIC. […] At last, the effect of the EA to strengthen the efficacy of the antibiotic is evaluated.
measuredEndpoint: MIC (µg/mL)
Express the result in µg/mL but write the number alone.

The following compounds have reported results that may help.
molecule	unitAnnotation	reportedMeasurement
C[C@H]1COc2c(N3CCN(C)CC3)c(F)cc3c(=O)c(C(=O)O)cn1c23	µg/mL	4
C[C@@H](O)[C@H]1C(=O)N2C(C(=O)O)=C(SCCN=CN)C[C@H]12	µg/mL	32
CC(C)(O/N=C(\C(=O)N[C@@H]1C(=O)N2C(C(=O)[O-])=C(C[n+]3ccccc3)CS[C@H]12)c1csc(N)n1)C(=O)O	µg/mL	64

Moving on to the next compound.
Reported MIC for CN(C)[C@@H]1C(O)=C(C(N)=O)C(=O)[C@@]2(O)C(O)=C3C(=O)c4c(O)cccc4[C@@](C)(O)[C@H]3C[C@@H]12 : what is it?
32

----------
- Test system: MDRPA
- experimentDescription: Checkerboard assay (combined-use MIC, FIC)
- Type: cell-based, Pseudomonas aeruginosa
- assayContext: 20 MDRPAs; antibiotic with 10% ethanol extract
- Procedure: Test methods of the sensibilization effects of the test product to similar antibiotics: it is operated by referring to a checkerboard assay recommended by NCCLS. The checkerboard assay is performed in a 96-pore sterile culture plate. Calculation of a Fractional Inhibitory Concentration (FIC): FIC=S20b combined-use MIC/S20b single-use MIC+antibiotic combined-use MIC/antibiotic single-use MIC. […] At last, the effect of the EA to strengthen the efficacy of the antibiotic is evaluated.
Listed compounds paired with reported reduction of the antibiotic's MIC50 vs single use
The figure you give is taken to be in %; do not add the unit.

molecule	reportedMeasurement
C[C@@H](O)[C@H]1C(=O)N2C(C(=O)O)=C(SCCN=CN)C[C@H]12	93.75

Please look up its reduction of the antibiotic's MIC50 vs single use: CC(C)(O/N=C(\C(=O)N[C@@H]1C(=O)N2C(C(=O)[O-])=C(C[n+]3ccccc3)CS[C@H]12)c1csc(N)n1)C(=O)O
50

Also need CCN1CCN(C(=O)N[C@@H](C(=O)N[C@@H]2C(=O)N3C(C(=O)O)=C(CSc4nnnn4C)CS[C@H]23)c2ccc(O)cc2)C(=O)C1=O , thanks.
93.75

Another compound to look at: C[C@H]1COc2c(N3CCN(C)CC3)c(F)cc3c(=O)c(C(=O)O)cn1c23
75

Another compound: NCC[C@H](O)C(=O)N[C@@H]1C[C@H](N)[C@@H](O[C@H]2O[C@H](CN)[C@@H](O)[C@H](O)[C@H]2O)[C@H](O)[C@H]1O[C@H]1O[C@H](CO)[C@@H](O)[C@H](N)[C@H]1O
93.75

----------
Quick list: MIC per entry.
- Tested on: MDRPA
- experimentDescription: MIC determination, microdilution broth method
- assayContext: Pseudomonas aeruginosa, read-out: MIC (single use), strain P3; EA=P. clypearia water extract
Please state the figure in µg/mL; there is no need to write the unit.

Below are worked cases with known answers.
molecule	MIC (µg/mL)
CC(C)(O/N=C(\C(=O)N[C@@H]1C(=O)N2C(C(=O)[O-])=C(C[n+]3ccccc3)CS[C@H]12)c1csc(N)n1)C(=O)O	4
CCN1CCN(C(=O)N[C@@H](C(=O)N[C@@H]2C(=O)N3C(C(=O)O)=C(CSc4nnnn4C)CS[C@H]23)c2ccc(O)cc2)C(=O)C1=O	16
NCC[C@H](O)C(=O)N[C@@H]1C[C@H](N)[C@@H](O[C@H]2O[C@H](CN)[C@@H](O)[C@H](O)[C@H]2O)[C@H](O)[C@H]1O[C@H]1O[C@H](CO)[C@@H](O)[C@H](N)[C@H]1O	4
C[C@H]1COc2c(N3CCN(C)CC3)c(F)cc3c(=O)c(C(=O)O)cn1c23	8

Here's the next entry for you.
Any idea what MIC was measured for C[C@@H](O)[C@H]1C(=O)N2C(C(=O)O)=C(SCCN=CN)C[C@H]12 ?
64

----------
- Test system: MDRAB
- experimentDescription: Checkerboard assay (combined-use MIC, FIC)
- Type: cell-based, Acinetobacter baumannii
- assayContext: 20 MDRABs; antibiotic with EA (10% ethanol extract)
FIC, all strains values, listed per item

compound	FIC, all strains
C[C@H]1COc2c(N3CCN(C)CC3)c(F)cc3c(=O)c(C(=O)O)cn1c23 [LVX, Levofloxacin]	≤ 2
C[C@@H](O)[C@H]1C(=O)N2C(C(=O)O)=C(SCCN=CN)C[C@H]12 [IMP, imipenem]	≤ 1
CC(C)(O/N=C(\C(=O)N[C@@H]1C(=O)N2C(C(=O)[O-])=C(C[n+]3ccccc3)CS[C@H]12)c1csc(N)n1)C(=O)O [CAZ, Ceftazidime]	≤ 2

As a next step, examine the compound that follows.
Give the measured FIC, all strains of CN(C)[C@@H]1C(O)=C(C(N)=O)C(=O)[C@@]2(O)C(O)=C3C(=O)c4c(O)cccc4[C@@](C)(O)[C@H]3C[C@@H]12 [TE, Tetracycline] .
≤ 1

----------
- Test system: MDRPA
- experimentDescription: Checkerboard assay (combined-use MIC, FIC)
- Type: cell-based, Pseudomonas aeruginosa
- assayContext: 20 MDRPAs; antibiotic with EA (water extract)
Response field label takes Met when MIC90 of the antibiotic after combined use is strictly below 20 µg/mL and Not met in all other cases.

Below 20 µg/mL on MIC90 of the antibiotic after combined use? Entry C[C@@H](O)[C@H]1C(=O)N2C(C(=O)O)=C(SCCN=CN)C[C@H]12 [IMP, imipenem]
Met

Please answer likewise for CC(C)(O/N=C(\C(=O)N[C@@H]1C(=O)N2C(C(=O)[O-])=C(C[n+]3ccccc3)CS[C@H]12)c1csc(N)n1)C(=O)O [CAZ, Ceftazidime]
Not met

Try the compound NCC[C@H](O)C(=O)N[C@@H]1C[C@H](N)[C@@H](O[C@H]2O[C@H](CN)[C@@H](O)[C@H](O)[C@H]2O)[C@H](O)[C@H]1O[C@H]1O[C@H](CO)[C@@H](O)[C@H](N)[C@H]1O [AMK, Amikacin]
Met

Follow-up item: C[C@H]1COc2c(N3CCN(C)CC3)c(F)cc3c(=O)c(C(=O)O)cn1c23 [LVX, Levofloxacin]
Met

Ok, now CCN1CCN(C(=O)N[C@@H](C(=O)N[C@@H]2C(=O)N3C(C(=O)O)=C(CSc4nnnn4C)CS[C@H]23)c2ccc(O)cc2)C(=O)C1=O [CFP, Cefoperazone]
Not met

----------
- Tested on: MDRPA
- experimentDescription: MIC determination, microdilution broth method;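 also: broth microdilution per NCCLS recommendations, testing Pithecellobium clypearia water or ethanol extracts against multidrug-resistant Pseudomonas aeruginosa, with MIC50 and MIC90 derived statistically from individual MICs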
- assayContext: Pseudomonas aeruginosa, read-out: MIC (single use), strain P9; EA=P. clypearia 10% ethanol extract
MIC strictly under 8 µg/mL means criterion met; at 8 µg/mL or over means criterion not met.

# count of solved cases: 3
molecule	classAssignment
CCN1CCN(C(=O)N[C@@H](C(=O)N[C@@H]2C(=O)N3C(C(=O)O)=C(CSc4nnnn4C)CS[C@H]23)c2ccc(O)cc2)C(=O)C1=O [CFP, Cefoperazone]	criterion not met
NCC[C@H](O)C(=O)N[C@@H]1C[C@H](N)[C@@H](O[C@H]2O[C@H](CN)[C@@H](O)[C@H](O)[C@H]2O)[C@H](O)[C@H]1O[C@H]1O[C@H](CO)[C@@H](O)[C@H](N)[C@H]1O [AMK, Amikacin]	criterion met
C[C@@H](O)[C@H]1C(=O)N2C(C(=O)O)=C(SCCN=CN)C[C@H]12 [IMP, imipenem]	criterion not met

Please look at the following molecule next.
Please determine if C[C@H]1COc2c(N3CCN(C)CC3)c(F)cc3c(=O)c(C(=O)O)cn1c23 [LVX, Levofloxacin] is below 8 µg/mL in terms of MIC.
criterion met
